Source listed as patent US4716109A.

- Tested on: Monoclonal progesterone antibody 11P12
- Format: binding
- APPLIED CONDITIONS: radioimmunoassay
Numbered stars: 1 amine (or outer) side, 2 acyl side, 3 side chain; on linkers, the order of the positions; unused ones are H or OH. Square brackets hold non-standard residues; d marks the D form. Peptide text beside a SMILES is read from it. * marks the point of attachment. X3 = CC(=O)[C@H]1CC[C@H]2[C@@H]3CCC4=CC(=O)CC[C@]4(C)[C@H]3[C@H](OCC(=O)*)C[C@]12C; X1 = CC(=O)C1CCC2C3CCC4=CC(=O)CCC4(C)C3C(OC3OC(C(=O)*)C(O)C(O)C3O)CC12C; Sta = CC(C)C[C@H](N)[C@@H](O)CC(=O)O; X2 = CC(C)CC(N[*:1])C(O)CC(=O)[*:2]
Listed molecules paired with reported Immunoreactivity Monoclonal 11P12
The response must be a number in % with no trailing unit.

>  <MOLECULE>
CCC(C)C(NC(=O)C(C)NC(=O)CC(O)C(CC(C)C)NC(=O)C(CO)NC(=O)C(CC(C)C)NC(=O)C(Cc1c[nH]cn1)NC(=O)C1OC(OC2CC3(C)C(C(C)=O)CCC3C3CCC4=CC(=O)CCC4(C)C23)C(O)C(O)C1O)C(=O)N1CCCC1C(=O)N1CCCC1C(=O)NC(CCCCN)C(=O)NC(CCCCN)C(=O)O (centres unmarked) [V] (X1-HLS[X2]AIPPKK-OH; configuration not given here)

>  <UNIT SPEC>
%

>  <Immunoreactivity Monoclonal 11P12>
31.8

$$$$
>  <MOLECULE>
CC[C@H](C)[C@H](NC(=O)[C@H](C)NC(=O)C[C@H](O)[C@H](CC(C)C)NC(=O)[C@H](CO)NC(=O)[C@H](CC(C)C)NC(=O)CO[C@@H]1C[C@]2(C)[C@@H](C(C)=O)CC[C@H]2[C@@H]2CCC3=CC(=O)CC[C@]3(C)[C@H]21)C(=O)N1CCC[C@H]1C(=O)N1CCC[C@H]1C(=O)N[C@@H](CCCCN)C(=O)N[C@@H](CCCCN)C(=O)O [VII] (X3-LS[Sta]AIPPKK-OH)

>  <UNIT SPEC>
%

>  <Immunoreactivity Monoclonal 11P12>
17.1

$$$$

// molecule CCC(C)C(NC(=O)C(C)NC(=O)CC(O)C(CC(C)C)NC(=O)C(CO)NC(=O)C(CC(C)C)NC(=O)C1OC(OC2CC3(C)C(C(C)=O)CCC3C3CCC4=CC(=O)CCC4(C)C23)C(O)C(O)C1O)C(=O)N1CCCC1C(=O)N1CCCC1C(=O)NC(CCCCN)C(=O)NC(CCCCN)C(=O)O (centres unmarked) [VI] (X1-LS[X2]AIPPKK-OH; configuration not given here) , assay Monoclonal progesterone antibody 11P12, Immunoreactivity Monoclonal 11P12 value: 3.8

Reading of Immunoreactivity Monoclonal 11P12 for CC(=O)[C@H]1CC[C@H]2[C@@H]3CCC4=CC(=O)CC[C@]4(C)[C@H]3[C@H](OCC(=O)O)C[C@]12C [II, Progesterone11α-carboxymethylether, reference compound] with Monoclonal progesterone antibody 11P12: 77.4

Recorded Immunoreactivity Monoclonal 11P12 for CC(=O)[C@H]1CC[C@H]2[C@@H]3CCC4=CC(=O)CC[C@]4(C)[C@H]3[C@H](OC3O[C@H](C(=O)O)[C@@H](O)[C@H](O)[C@H]3O)C[C@]12C (stereo partly drawn) [I, Progesterone11α-glucuronide, reference compound] on Monoclonal progesterone antibody 11P12 was 151
